Property: half-life; scope: individual compounds
- assay.explanation: Mouse liver microsomal stability
- Format: in vitro ADME
- measurement.setup: mouse liver microsomes, pH 7.4
Enter your answer as a number in min; do not include the unit.

Examples with their reported half-life follow.
Cc1n[nH]c2ccc(NS(=O)(=O)CCCCF)cc12 :: 28.4
CCCCCS(=O)(=O)Nc1ccc2[nH]c(C#N)c(C)c2c1 :: 4.08

Below: the item to evaluate.
compound CCCCS(=O)(=O)Nc1ccc2[nH]c(C#N)c(C)c2c1 , half-life observed: 6.51

###

- measurement.target: UniProtKB Q12809
- Sequence (Q12809 whole entry): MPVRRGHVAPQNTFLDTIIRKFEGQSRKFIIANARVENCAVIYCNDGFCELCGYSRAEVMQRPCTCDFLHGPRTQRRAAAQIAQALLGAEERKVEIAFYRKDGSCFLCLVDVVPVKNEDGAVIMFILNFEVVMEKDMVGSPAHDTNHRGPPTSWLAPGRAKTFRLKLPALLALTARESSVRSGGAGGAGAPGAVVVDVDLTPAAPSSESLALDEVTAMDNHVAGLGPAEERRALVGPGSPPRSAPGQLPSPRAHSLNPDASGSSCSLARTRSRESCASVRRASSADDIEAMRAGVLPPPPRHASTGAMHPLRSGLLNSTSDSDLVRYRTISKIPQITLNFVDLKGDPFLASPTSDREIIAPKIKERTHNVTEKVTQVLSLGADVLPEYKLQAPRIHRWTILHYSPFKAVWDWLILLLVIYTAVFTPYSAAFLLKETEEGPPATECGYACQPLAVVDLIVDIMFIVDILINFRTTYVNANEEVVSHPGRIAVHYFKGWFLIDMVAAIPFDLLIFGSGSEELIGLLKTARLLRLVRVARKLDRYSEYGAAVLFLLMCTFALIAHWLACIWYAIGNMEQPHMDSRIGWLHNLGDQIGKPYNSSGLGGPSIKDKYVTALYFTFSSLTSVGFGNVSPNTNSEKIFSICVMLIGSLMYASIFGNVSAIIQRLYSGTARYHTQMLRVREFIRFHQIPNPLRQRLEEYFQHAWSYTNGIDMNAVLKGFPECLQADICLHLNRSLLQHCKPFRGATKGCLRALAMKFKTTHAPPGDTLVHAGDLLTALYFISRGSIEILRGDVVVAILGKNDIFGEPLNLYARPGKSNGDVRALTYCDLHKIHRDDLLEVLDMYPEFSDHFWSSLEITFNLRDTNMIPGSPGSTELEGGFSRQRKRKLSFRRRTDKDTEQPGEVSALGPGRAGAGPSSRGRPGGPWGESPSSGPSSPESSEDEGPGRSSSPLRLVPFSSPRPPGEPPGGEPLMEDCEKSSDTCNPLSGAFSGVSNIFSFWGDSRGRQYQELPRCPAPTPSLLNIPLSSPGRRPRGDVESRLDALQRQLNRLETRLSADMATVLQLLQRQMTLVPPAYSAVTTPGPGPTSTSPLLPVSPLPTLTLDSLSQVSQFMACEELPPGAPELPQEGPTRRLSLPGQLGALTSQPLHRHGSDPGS
outcome.measure: IC50

Entry Cc1n[nH]c2ccc(NS(=O)(=O)CCCCF)cc12 under UniProtKB Q12809 had IC50 of > 50 µM

All values here come from paper PMC7245553.
